Biological target: FAAH (Mus musculus)
Construct: Proteomes (mouse brain membrane fraction or cell lysates); from tissue; host or cells: mouse brain membrane fraction (or cell lysates, not specified)
Sequence (O08914 whole entry): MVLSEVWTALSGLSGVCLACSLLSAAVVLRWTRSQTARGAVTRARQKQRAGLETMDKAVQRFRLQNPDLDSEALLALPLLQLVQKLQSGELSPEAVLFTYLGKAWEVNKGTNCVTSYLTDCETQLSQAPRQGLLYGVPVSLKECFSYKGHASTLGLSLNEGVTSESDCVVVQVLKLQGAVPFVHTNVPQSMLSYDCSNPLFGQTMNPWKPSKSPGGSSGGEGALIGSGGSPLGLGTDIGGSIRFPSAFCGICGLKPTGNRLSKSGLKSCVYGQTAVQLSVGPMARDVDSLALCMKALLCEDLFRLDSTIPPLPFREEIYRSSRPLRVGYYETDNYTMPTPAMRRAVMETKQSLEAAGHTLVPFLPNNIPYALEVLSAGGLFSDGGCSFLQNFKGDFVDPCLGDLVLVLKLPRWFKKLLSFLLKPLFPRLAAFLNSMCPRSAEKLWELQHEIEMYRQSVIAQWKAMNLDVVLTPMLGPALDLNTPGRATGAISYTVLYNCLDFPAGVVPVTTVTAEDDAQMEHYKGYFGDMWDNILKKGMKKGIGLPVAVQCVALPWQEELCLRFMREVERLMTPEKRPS
Assay: In vitro competitive activity-based protein profiling (gel-based, FP-Rh or HT-01 probe)
Assay type: biochemical
Details: 10 μM inhibitor; read-out: % Inhibition at 10 μM, B = FAAH
What inhibition at 10 µM was measured for each of the following?

QUERY: Returns the measured inhibition at 10 µM for the input molecule. Input: `O=C(c1ccccc1)N1CCN(C(=O)n2cc(Cl)cn2)CC1`
RESULT: > 75%

QUERY: Queued: `CC(=O)N1CCCN(C(=O)n2cc(C)cn2)CC1`
RESULT: 25 to 75%

QUERY: Queued: `O=C(c1cnn(C(=O)N2CCN(Cc3ccc4c(c3)OCO4)CC2)c1)N1CCCCC1`
RESULT: > 75%

QUERY: Queued: `O=C(c1cnn(C(=O)N2CCN(Cc3ccncn3)CC2)c1)N1CCC1`
RESULT: 25 to 75%

QUERY: Queued: `O=C(N1CCN(Cc2ccccc2)CC1)n1cc(Cl)cn1`
RESULT: > 75%

QUERY: Queued: `O=C(c1cnn(C(=O)N2CCN(Cc3cncnc3)CC2)c1)N1CCC1`
RESULT: < 25%

QUERY: Queued: `O=C(NCCCCc1ccccc1)n1cccn1`
RESULT: < 25%

QUERY: Queued: `O=C(N1CCN(Cc2cccnc2)CC1)n1cc(-c2ccccc2)cn1`
RESULT: > 75%

QUERY: Queued: `Cc1cnn(C(=O)N(C)CCN(C)Cc2ccccc2)c1`
RESULT: < 25%

QUERY: Queued: `CN(CCN(C)S(C)(=O)=O)C(=O)n1cc(Cl)cn1`
RESULT: < 25%
